pIC50 values, listed per item
Biological target: SARM1 (ARM-SAM-TIR) (Homo sapiens (Human))
Sequence (Q6SZW1 other isoform, or with tags, fused parts or gaps): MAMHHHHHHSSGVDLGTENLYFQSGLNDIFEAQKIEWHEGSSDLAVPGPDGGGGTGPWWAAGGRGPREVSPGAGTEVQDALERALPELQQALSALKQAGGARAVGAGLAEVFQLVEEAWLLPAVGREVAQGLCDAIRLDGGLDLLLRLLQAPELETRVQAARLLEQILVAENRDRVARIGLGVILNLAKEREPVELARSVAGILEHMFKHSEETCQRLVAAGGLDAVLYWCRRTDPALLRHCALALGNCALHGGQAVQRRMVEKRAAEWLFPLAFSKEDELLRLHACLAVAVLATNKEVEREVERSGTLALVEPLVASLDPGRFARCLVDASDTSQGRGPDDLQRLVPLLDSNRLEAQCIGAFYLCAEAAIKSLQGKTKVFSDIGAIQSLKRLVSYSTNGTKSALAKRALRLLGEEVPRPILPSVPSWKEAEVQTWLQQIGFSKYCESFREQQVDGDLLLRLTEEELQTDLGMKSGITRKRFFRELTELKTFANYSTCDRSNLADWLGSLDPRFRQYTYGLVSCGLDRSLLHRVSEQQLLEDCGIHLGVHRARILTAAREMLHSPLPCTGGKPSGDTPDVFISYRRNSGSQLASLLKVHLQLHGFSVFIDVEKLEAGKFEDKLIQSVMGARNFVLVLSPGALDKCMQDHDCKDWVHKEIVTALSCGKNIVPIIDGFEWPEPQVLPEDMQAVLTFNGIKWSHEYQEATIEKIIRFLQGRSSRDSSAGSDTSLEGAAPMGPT
Test: ARM-SAM-TIR SARM1 IC50 assay (NADase activity, NAD+ cleavage, RapidFire MS)
Conditions: ARM-SAM-TIR lysate 5 μg/mL, 2 h pre-incubation, 5 μM NAD+, 2 hr room temperature
pIC50: −log10 of the molar value.

Record excerpt, results attached:
- COMPOUND: "N#Cc1cc(Cl)ccc1CCC(=O)Nc1nnc(-c2ccncc2)[nH]1 [Example 50]"
  RECORDED_VALUE: "> 5.30"
- COMPOUND: "Cn1cc(CCC(=O)Nc2nnc(-c3ccncc3)[nH]2)cn1 [Example 133]"
  RECORDED_VALUE: "< 4.52"
- COMPOUND: "O=C(CCc1ccc(C(F)(F)F)nc1)Nc1nnc(-c2ccncc2)[nH]1 [Example 86]"
  RECORDED_VALUE: "> 5.30"

Retrieve pIC50 on SARM1 (ARM-SAM-TIR) (Homo sapiens (Human)); query O=C(CCc1ccc(F)cc1)Nc1cc(-c2ccncc2)n[nH]1 [Example 37] > 5.30

Retrieve pIC50 on SARM1 (ARM-SAM-TIR) (Homo sapiens (Human)); query Cc1c(-c2ccncc2)n[nH]c1NC(=O)[C@@H](O)Cc1ccc(Cl)cc1 [Example 290] > 5.30

Retrieve pIC50 on SARM1 (ARM-SAM-TIR) (Homo sapiens (Human)); query O=C(CN1C(=O)COc2cc(Cl)ccc21)Nc1cc(-c2ccncc2)n[nH]1 [Example 38] < 4.52

Retrieve pIC50 on SARM1 (ARM-SAM-TIR) (Homo sapiens (Human)); query CC1(c2c(-c3ccnnc3)n[nH]c2NC(=O)CCc2ccc(Cl)nc2)CC1 [Example 321] > 5.30

---

Target: SARM1 (ARM-SAM-TIR) (Homo sapiens (Human))
Assay: ARM-SAM-TIR SARM1 IC50 assay (NADase activity, NAD+ cleavage, RapidFire MS)
Conditions: ARM-SAM-TIR lysate 5 μg/mL, 2 h pre-incubation, 5 μM NAD+, 2 hr room temperature
IC50 values, listed per item

Record excerpt, results attached:
- MOLECULE: "O=C(CCc1ccc(Cl)cc1)Nc1nnc(-c2c(F)cncc2F)[nH]1 [Example 315]"
  RECORDED_VALUE: "5 to 15 µM"
- MOLECULE: "Cc1c(-c2ccncc2)n[nH]c1NC(=O)CCc1ccc(Cl)nc1 [Example 27]"
  RECORDED_VALUE: "< 5 µM"
- MOLECULE: "CC(=O)Nc1nnc(-c2ccncc2)[nH]1 [Example 144]"
  RECORDED_VALUE: "> 30 µM"
- MOLECULE: "N[C@H](Cc1ccc(Cl)cc1)C(=O)Nc1nnc(-c2ccncc2)[nH]1 [Example 82]"
  RECORDED_VALUE: "< 5 µM"
- MOLECULE: "Cc1c(-c2ccnnc2)n[nH]c1NC(=O)C[C@@H]1CCOc2cc(Cl)ccc21 [Example 279]"
  RECORDED_VALUE: "< 5 µM"

Query IC50 for O=C(Cc1coc2cc(Cl)ccc12)Nc1nnc(-c2ccncc2)[nH]1 [Example 295] < 5 µM

Query IC50 for O=C(CCc1ccc(Cl)nc1)Nc1[nH]nc(-c2ccncc2)c1C1CCC1 [Example 204] 5 to 15 µM

Query IC50 for Cn1ccnc1CCC(=O)Nc1nnc(-c2ccncc2)[nH]1 [Example 128] > 30 µM

Query IC50 for Cc1c(-c2ccncc2)n[nH]c1NC(=O)C1Cc2ccccc2CO1 (stereo not drawn) [Example 323] 5 to 15 µM

Data provenance is patent US12331033B2.
